Experimental Target: LCAT (Homo sapiens, UniProt P04180)
Construct: The obtained fraction was dialyzed against phosphate-buffered saline (pH 7.4) and used as an enzyme source and an acceptor for LCAT
Sequence (P04180 25-440): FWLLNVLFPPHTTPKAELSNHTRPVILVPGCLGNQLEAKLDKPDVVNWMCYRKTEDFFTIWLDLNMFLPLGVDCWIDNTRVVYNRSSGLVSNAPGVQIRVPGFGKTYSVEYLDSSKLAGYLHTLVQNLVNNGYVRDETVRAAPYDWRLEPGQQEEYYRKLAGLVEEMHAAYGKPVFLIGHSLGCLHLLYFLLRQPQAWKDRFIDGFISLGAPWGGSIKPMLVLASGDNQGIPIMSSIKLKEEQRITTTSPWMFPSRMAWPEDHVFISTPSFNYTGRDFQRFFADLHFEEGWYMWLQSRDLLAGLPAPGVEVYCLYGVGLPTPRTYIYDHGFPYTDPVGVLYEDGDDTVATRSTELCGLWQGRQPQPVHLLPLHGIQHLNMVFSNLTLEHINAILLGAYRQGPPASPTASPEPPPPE
Test Details: LCAT Activity Measurement (In Vitro)
Experimental Context: EC50 of LCAT activation; HDL3 fraction from plasma of a healthy person as enzyme source and acceptor; [14C]cholesterol; 37° C., approximately 16 hours
Measured Endpoint: EC50 (nM)

These solved cases illustrate the format of a correct answer.
O=C1CC(O)(C(F)(F)F)c2c(C3CCN(c4cc(C(F)(F)F)ncn4)CC3)n[nH]c2N1 (stereo not shown) [Example 45] ... 140
N#Cc1cc(N2CCC(c3n[nH]c4c3C(O)(C(F)(F)F)CC(=O)N4)CC2)ccc1OC(F)(F)F (stereo not shown) [Example 62] ... 7
O=C1CC(O)(C(F)(F)F)c2c(C3CCN(c4nccs4)CC3)n[nH]c2N1 (stereo not shown) [Example 29] ... 1880
COc1cncc(N2CCC(c3n[nH]c4c3C(O)(C(F)(F)F)CC(=O)N4)CC2)c1 (stereo not shown) [Example 40] ... 1710
O=C1CC(O)(C(F)(F)F)c2c(C3CCN(c4ccc(OC5CCC5)nc4)CC3)n[nH]c2N1 (stereo not shown) [Example 61] ... 100

A: O=C1CC(O)(C(F)(F)F)c2c(C3CCN(c4ccc(C(F)(F)F)c(Cl)n4)CC3)n[nH]c2N1 (stereo not shown) [Compound 98-a]
B: CC(C)c1nc(N2CCC(c3n[nH]c4c3C(O)(C(F)(F)F)CC(=O)N4)CC2)cc(C(F)(F)F)n1 (stereo not shown) [Example 88]
Return label of the item with the larger EC50. Candidates: A , B . To answer, give the label that identifies your chosen option.
B
(B: 88 nM, A: 23 nM)

a: N#Cc1ccc(N2CCC(c3n[nH]c4c3C(O)(C(F)(F)F)CC(=O)N4)CC2)nc1 (stereo not shown) [Example 31]
b: N#Cc1cncc(N2CCC(c3n[nH]c4c3C(O)(C(F)(F)F)CC(=O)N4)CC2)c1 (stereo not shown) [Example 37]
Identify the entry with the smaller EC50: a or b . Give the label under which the chosen entry appears.
b
